Reported IC50 values for a set of binders
target: T1, human CLDN18.2 (human); assay: competition FACS on HEK293/hCLDN18.2 cells; competitor 10 nM biotinylated PR000400
T1 construct: the HEK293 line was made with a GenScript plasmid; also called hCLDN18.2
The response must be a number in nM with no trailing unit.

| binder | reported |
| --- | --- |
| PR004227 (antibody, V domains shown, anti-CLDN18.2 HCAb: VH fused to human IgG1 Fc, no light chain; also called R1029P(CG20)001B02) VH: EVQLVESGGGLVQPGGSLRLSCAASGFTFSSYWMHWVRQAPGKGLEWVSYINNDGSSTRYADSVKGRFTISRDNAKNTLYLQMNSLRAEDTAVYYCTEAPPYGNYERDYWGQGTLVTVSS | 22.3 |
| PR004533 (antibody, V domains shown, anti-CLDN18.2 HCAb: VH fused to human IgG1 Fc, no light chain; also called R1029P021E10) VH: EVQLVESGGGLVQPGGSLRLSCAASGFTFSSYWMHWVRQVPGKGLVWVSRINSDGSRTIYADSVKGRFTISRDNAKNTLYLQMNSLRAEDTAVYYCARGEDHDILTGYPIRGQGTTVTVSS | 25.5 |
| PR004949 (antibody, V domains shown, anti-CLDN18.2 HCAb: VH fused to human IgG1 Fc, no light chain; also called R1029P021C02) VH: EVQLVESGGGLVQPGGSLRLSCAASGFTFSAYWMHWVRQVPGRGLVWVSRINSDGSRTIYADSVKGRFTISRDNAKNTLYLQMNSLRAEDTAVYLCARGEDHDMLTGYPVRGQGTMVTVSS | 35.4 |
| PR004950 (antibody, V domains shown, anti-CLDN18.2 HCAb: VH fused to human IgG1 Fc, no light chain; also called R1029P021F07) VH: EVQLVESGGGLVQPGGSLRLSCAASGFTFSAYWMHWVRQVPGKGLVWVSRINSDGSRTIYADSVKGRFTISRDNAKNTLYLQMNSLRAEDTAVYYCARGEDHDILTGYPIRGQGTMVTVSS | 23.5 |

IC50 for PR004953 (antibody, V domains shown, anti-CLDN18.2 HCAb: VH fused to human IgG1 Fc, no light chain; also called R1029P024B07) VH: EVQLVESGGGVVQPGRSLRLSCAASGFTFSSYGMHWVRQAPGKGLEWVAVIGYDGRNKYYADSVKGRFTISRDNSKNTLFLQMDNLRAEDTALYYCARHFPSLPGTTDTFDIRGPGTMVTVSS is 16.7
